We begin with a simple list: items and their reported Z score.
Test system: Plasmodium falciparum
Assay: Primary screen in NF54 nanoGlo assay, in single point, at 2uM, 72h
Format: functional, Erythrocyte
Settings: timepoint 72 hour
Screen size: about 150,000 compounds; about 540 (0.36%) showed an effect of 50% or more. For the sample, strong results were picked, then their nearest neighbours and some compounds at random.
Lab note: record the figure alone, no unit after it.

CCN(c1noc(C2CCN(C(=O)C(C)C)CC2)n1)C(C)C = 2.32

What reported Z score corresponds to O=C(N[C@H]1CCc2cc(F)c(F)c(F)c21)N1CCn2ncnc2C1 on Plasmodium falciparum?
1.12

* * *

System: Plasmodium falciparum
Assay: Primary screen in NF54 nanoGlo assay, in single point, at 2uM, 72h
Type: functional, Erythrocyte
Conditions: timepoint 72 hour
About 540 (0.36%) of roughly 150,000 compounds showed an effect of 50% or more. For the sample, strong results were picked, then their nearest neighbours and some compounds at random.
Listing of entries alongside the reported % Inhibition.
Return type: number; implicit unit %.

Worked examples follow.
COc1cc2c(cc1OC)CN(C(=O)c1ccc(N3CCOCC3)nc1)CC2 = 2
C[C@H](Nc1nc(N(C)C)nc2ccccc12)c1ccccc1 = -5
NC(=O)[C@@H]1CN(Cc2ccc(-c3ccc(Cl)cc3)s2)CCO1 = -11
NS(=O)(=O)c1ccc(CCNc2nc(-c3ccccc3)nc3ccccc23)cc1 = 39
Cc1ccc([C@H]2C(=O)N(C3CCC(C)CC3)CC(=O)N2C2CCCCCCC2)cc1 (some centres undefined) = -6
O=C(Nc1onc2c1CCC2)c1ccc2ncsc2c1 = 0
O=C(NCC1(c2ccccc2)CCCCCC1)N1CCO[C@@H](CO)C1 = -5
Cc1cc(C)c(C(=O)NCC#C[C@@H]2CCCCO2)c(C)n1 = -23
CCS(=O)(=O)Nc1ccnn1[C@@H](C)C1CC1 = 3
Cc1ccc(-c2n[nH]c3c2cnc2ccc(C)cc23)cc1 = -5

Item COc1cc2ncc3c(-c4ccccc4)n[nH]c3c2cc1OC has what recorded % Inhibition?
9

Reported % Inhibition for CC(C)COC(=O)c1nc2ccccc2nc1Nc1ccc2c(c1)OCCO2 : what is it?
8

Sample Nc1nnc(N[C@H]2COc3ccccc32)[nH]1 — what was its % Inhibition?
0

Fill blank: measured % Inhibition of the compound CNc1nc(NCCc2ccccc2)nc2ccccc12 is ____.
83

Report % Inhibition for Cc1nnc(OC2Cc3ccccc3C2)s1 please.
-7

Given O=C(Nc1onc2c1CCC2)c1ccc2ccccc2c1 , state its recorded % Inhibition.
76

% Inhibition for OCCOc1cncc(N2CCOC3(CCCCCC3)C2)n1 ?
8

Quick one: % Inhibition for Nc1ncnc(NCCc2ccccc2)n1 ?
2

Would you mind telling me what % Inhibition value was observed for O=C(N[C@@H](Cn1nccn1)c1ccccc1)c1cc(-c2ccccc2)n[nH]1 ?
-4

Find the recorded % Inhibition belonging to CCOc1cccc2[nH]cc(CC(=O)N[C@H](c3nccn3C)C3CC3)c12 and report it.
7

Fill in the blank: the reported % Inhibition of CCN1CCCCc2cc(C(=O)N[C@H]3CCS(=O)(=O)C3)sc21 is ____.
-2

* * *

System: Plasmodium falciparum
Assay: Primary screen in NF54 nanoGlo assay, in single point, at 2uM, 72h
Assay type: functional, Erythrocyte
Settings: timepoint 72 hour
In all, about 150,000 compounds went through this assay and about 540 (0.36%) showed an effect of 50% or more. Only a selection was taken, and strong results are over-represented in it overall.
Label condition met when Z score is at or above 1; anything below gets condition not met.

Recorded results for 8 compounds are shown here.
CCCN1C(=O)c2ccccc2N2C(=O)CC[C@@]12C(=O)Nc1ccc(OC)cc1 = condition not met
Fc1ccc([C@@H]2CCN2CCn2cc(Cl)cn2)cc1 = condition not met
CCCN1C(=O)c2ccccc2N2C(=O)CC[C@@]12C(=O)Nc1cccc(NC(C)=O)c1 = condition not met
CCCN1C(=O)c2ccccc2N2C(=O)CC[C@@]12C(=O)Nc1nc(C)cs1 = condition not met
Cc1cc(OC[C@@H](O)CNC(C)C)cc(C)c1Cl = condition met
CC(=O)c1cccc(NC(=O)N2CCC3(CCC3)C2)c1 = condition met
COc1ccc(CN(Cc2ccco2)C(=O)c2cccc(F)c2)cc1OS(=O)(=O)c1ccc(F)cc1 = condition met
COC(=O)Nc1nc(-c2ccccc2)c(-c2nccc(OCC(F)(F)F)c2C)s1 = condition not met

State whether the measured Z score reaches 1, counting equality as reaching it, for COc1cccc(NC(=O)C23CCCN2CCC3)c1
condition met

Is it the case that Cc1ccc(C(=O)C[n+]2cc(-c3ccc(Br)cc3)n(C)c2N)cc1 has Z score reaching or exceeding 1?
condition met

* * *

Test system: Plasmodium falciparum
Assay: Primary screen in NF54 nanoGlo assay, in single point, at 2uM, 72h
Type: functional, Erythrocyte
Conditions: timepoint 72 hour
Screen size: about 150,000 compounds; about 540 (0.36%) showed an effect of 50% or more. The list comes from a sample in which strong results are over-represented; it also holds close analogues and randomly drawn compounds.
Quantity kind: % Inhibition

Recorded results for 3 compounds are shown here.
c1ccc(-c2noc(C3CCN(c4ccc5nncn5n4)CC3)n2)nc1 = -18%
CCc1cnc(Cn2nc(-c3ccccc3)cc(C(F)(F)F)c2=O)o1 = -6%
Cc1nonc1CC(=O)NCCCn1ccnn1 = -4%

Which % Inhibition reading was recorded for the compound COc1cc(Br)c(NC(=O)N(C)CC(C)C)cc1OC ?
-13%

If you can, please state the reported % Inhibition value of Cc1cc(F)ccc1C(=O)NCc1nnc(C)n1C1CC1 .
-2%

Report % Inhibition for CCC(=O)Nc1cc(NC(=O)N(CC)CC2CCOCC2)ccc1OC please.
-8%

Given N[C@H](C(=O)Nc1cncc(Br)c1O)C1CCOCC1 , state its recorded % Inhibition.
10%

# input compound: CC(C)(C)OC(=O)N1CC(OC(=O)CC2(CS(C)(=O)=O)CC2)C1 ; wanted: its % Inhibition
-13%

Recorded % Inhibition of O=C(Cn1nnc2ccccc21)N(Cc1nc(-c2ccccc2)cs1)C1(C(=O)Nc2ccc3c(c2)OCO3)CCCC1 , please.
-7%

Suppose we examine the compound Cc1ccc(-n2cnc3c2CCN(C(=O)C(=O)Nc2c4c(nn2C)CCCC4)C3)cc1 ; what % Inhibition value has been reported?
-13%

Recorded % Inhibition for CC(C)(C)OC(=O)N1CC(CNC2(c3ncon3)CCC2)C1 , please?
9%

* * *

// reported % Inhibition per item
Test system: Plasmodium falciparum
Assay: Primary screen in NF54 nanoGlo assay, in single point, at 2uM, 72h
Format: functional, Erythrocyte
Settings: timepoint 72 hour
The whole screen tested about 150,000 compounds, of which about 540 (0.36%) showed an effect of 50% or more. Only a selection was taken, and strong results are over-represented in it overall.
I only need the number, in %, no unit after it.

COc1cccc(CN2C(=O)N[C@@](C)(C3CCN(C(=O)c4cccnc4OC)CC3)C2=O)c1OC = 8

# query: % Inhibition of entry CC[C@@H](COc1ccccc1)NC(=O)CC1CCNCC1
9

Field request: % Inhibition | item: CCOc1ccc(NC(=O)C2CCN(c3c(C(=O)N(CC)CC)cnc4snc(C)c34)CC2)cc1
5

Need % Inhibition of Cc1nsc2ncc(C(=O)N3CCC(C)CC3)c(N3CCC(C(=O)Nc4cc(F)ccc4F)CC3)c12 , thanks.
60

Name the reported % Inhibition value associated with the molecule Cc1nsc2ncc(C(=O)N3CCCCC3)c(N3CCC(C(=O)Nc4cc(F)ccc4F)CC3)c12
5

* * *

# key: entry, value: % Inhibition
System: Plasmodium falciparum
Test: Primary screen in NF54 nanoGlo assay, in single point, at 2uM, 72h
Type: functional, Erythrocyte
Conditions: timepoint 72 hour
Screen size: about 150,000 compounds; about 540 (0.36%) showed an effect of 50% or more. The full list was thinned out, with strong results kept by preference.
A number alone suffices; assume %.

Reference set, count: 5
COc1ccc(C(=O)C[n+]2cc(-c3ccc(OC)cc3)n3c2CCCC3)cc1 = 65
O=C1CCCCN1CCC(=O)N1CCc2onc(-c3cccc4ccccc34)c2C1 = -1
COc1ccc(C(=O)C[n+]2nc(CNc3ccc(Br)cc3)n3c2CCCCC3)cc1 = 78
Cc1n(CC(=O)c2ccccc2)c2ccccc2[n+]1CC(=O)c1ccccc1 = 59
COC(=O)c1cn(CCc2cn3ccccc3n2)cc2c(O)nnc1-2 = -7

For COC(=O)c1cn(Cc2cccnc2)cc2c(O)nnc1-2 , what is its reported % Inhibition?
0

Given the compound Cc1cc(C)nc(O[C@H]2CCCN(C(=O)c3cccn(C)c3=O)C2)n1 , what is its reported % Inhibition?
-2

Using the record for O=C(CNC(=O)NC1CC1)NCCc1cc(F)cc2c1OCOC2 , report its % Inhibition.
-2

Give the measured % Inhibition of Cc1ccncc1C(=O)N1CCC(CCn2c(C)cnc2C2CC2)CC1 .
-3

// returns reported % Inhibition for input NS(=O)(=O)c1cnc(N[C@H]2CCc3ccc(F)cc32)s1
-3

What % Inhibition value was documented for this compound, CCOc1ccc([C@@]2(O)CN3CCCCCC3=[N+]2c2ccc(C)cc2)cc1 ?
1
